The measured values listed here are drawn from patent US20240251792A1.

system: LOLPE; assay: Biological efficacy, post-emergence glasshouse test (Table 2); assay type: in vivo; details: 1000 g/ha, after 12 days
score (100=total damage to plant, 0=no damage to plant) values, listed per item
Please reply with the value in numeric form only.

Nc1cccc(C(F)(F)C(=O)O)c1: 0
COc1cccc(C(F)(F)C(=O)O)c1: 0

Endpoint output: score (100=total damage to plant, 0=no damage to plant) of N#Cc1cccc(C(F)(F)C(=O)O)c1 . Value?
0

---

test system: STEME; experiment: Biological efficacy, pre-emergence glasshouse test (Table 2); type: in vivo; conditions: 1000 g/ha, after 12 days
score (100=total damage to plant, 0=no damage to plant) values, listed per item

N#Cc1cccc(C(F)(F)C(=O)O)c1: 10
CC(C)Oc1ccccc1C(F)(F)C(=O)O: 30
COc1ccccc1C(F)(F)C(=O)O: 60
COc1ccc(F)cc1C(F)(F)C(=O)O: 0
O=C(O)C(F)(F)c1ccc(OC(F)F)cc1F: 0
COc1cc(C(F)(F)C(=O)O)ccc1C: 30

Below: the item to evaluate.
Endpoint output: score (100=total damage to plant, 0=no damage to plant) of CCOc1ccccc1C(F)(F)C(=O)O . Value?
40

---

score (100=total damage to plant, 0=no damage to plant) values, listed per item
system: AMARE; assay: Biological efficacy, pre-emergence glasshouse test (Table 2); assay type: in vivo; conditions: 1000 g/ha, after 12 days
Please reply with the value in numeric form only.

N#Cc1cccc(C(F)(F)C(=O)O)c1: 10
CCOC(=O)C(F)(F)c1cccc2ccccc12 [Compound 3-397, Ethyl 2,2-difluoro-2-(1-naphthyl)acetate]: 0
CC(C)(C)c1ccc(C(F)(F)C(=O)O)cc1: 0
CCc1c(Cl)cccc1C(F)(F)C(=O)O: 100

Endpoint output: score (100=total damage to plant, 0=no damage to plant) of O=C(O)C(F)(F)c1ccc(OC(F)(F)F)cc1 . Value?
50

Endpoint output: score (100=total damage to plant, 0=no damage to plant) of O=C(O)C(F)(F)c1ccc(OC(F)(F)F)c(Br)c1 . Value?
30

Endpoint output: score (100=total damage to plant, 0=no damage to plant) of N.N#Cc1cccc(C(F)(F)C(=O)O)c1Cl . Value?
90

Endpoint output: score (100=total damage to plant, 0=no damage to plant) of COc1cc(C(F)(F)C(=O)O)ccc1C . Value?
0

Endpoint output: score (100=total damage to plant, 0=no damage to plant) of O=C(O)C(F)(F)c1ccc(OC(F)F)cc1F . Value?
0

---

evaluation (100=total damage to plant; 0=no damage to plant) values, listed per item
tested on: ZEAMX; experiment: Pre-emergence biological efficacy (Table 3); type: in vivo; settings: 1000 g/ha, after 13 days
Please reply with the value in numeric form only.

Nc1ccc(Cl)c(Cl)c1C(F)(F)C(=O)[O-].[Li+] [Compound 5-80]: 0
N.Nc1ccc(C(F)(F)C(=O)O)c(Cl)c1Cl [Compound 7-75]: 0
Nc1ccc(Cl)cc1C(F)(F)C(=O)[O-].[Li+] [Compound 5-251]: 0
COc1cc(F)c(C(F)(F)C(=O)O)cc1Cl.N [Compound 7-31]: 0

Below: the item to evaluate.
Endpoint output: evaluation (100=total damage to plant; 0=no damage to plant) of N.N#Cc1cccc(C(F)(F)C(=O)O)c1Cl [Compound 7-231] . Value?
50
